- Tested on: Rabbit Psoas myofibrils (skeletal myosin ATPase)
- procedure summary: Myofibril ATPase assay, rabbit psoas (skeletal) myofibrils
- Assay type: biochemical
- conditions used: Y75 value (no ‡ mark); rabbit psoas myofibrils
For each record, check the reported Skeletal EC25: if it is below 2000 nM write yes (1), else write no (0).

Cc1c(CC(=O)N[C@@H](C)c2ncc(C#N)cn2)c(=O)[nH]c2cc(F)ccc12
no (0)
Cc1c(F)ccc2[nH]c(=O)c(C(F)(F)C(=O)N[C@H](C)c3ncc(C#N)cc3F)c(C#N)c12 (single isomer, unassigned)
yes (1)
Cc1c(CC(=O)N[C@H](C)c2ccc(C#N)nn2)c(=O)[nH]c2cc(F)c(F)cc12
yes (1)

// query Could you please tell me whether Skeletal EC25 recorded for Cc1c(C2(C(=O)N[C@H](C)c3ncc(C#N)cn3)CC2)c(=O)[nH]c2ccc(F)cc12 (single isomer, unassigned) is less than 2000 nM?
// result yes (1)

// query Lab log: compare recorded Skeletal EC25 with 2000 nM; is it strictly lower for `Cc1c(CC(=O)N[C@H](C)c2ccc(C#N)cn2)c(=O)[nH]c2cc(F)c(F)cc12` ?
// result no (0)

---

- Tested on: Porcine atria myofibrils (atrial myosin ATPase)
- procedure summary: Myofibril ATPase assay, porcine atria myofibrils
- Type: biochemical
- conditions used: porcine atria myofibrils; Y75 value (75% activity relative to no compound)
Classification field: enter true for Atrial EC25 values not below 9 µM, false for values below it.

Cc1c([C@H](C)C(=O)N[C@@H](C)c2ccc(F)cc2F)c(=O)[nH]c2ccc(C(F)(F)F)nc12 (single isomer, unassigned)
false
Cc1c(CC(=O)N[C@H]2COc3cccnc32)c(=O)[nH]c2ccnc(C#N)c12 (single isomer, unassigned)
true
Cc1c(CC(=O)N[C@H](C)c2ccc(C#N)cc2F)c(=O)[nH]c2ccnc(OC3CC3)c12
true
C[C@H](NC(=O)[C@H](C)c1cc2c(C#N)nccc2[nH]c1=O)c1ccc(F)cc1F (single isomer, unassigned)
true

// query Could you please find out whether `C[C@H](NC(=O)Cc1cc2c(F)nccc2[nH]c1=O)c1ccc(F)cc1F` has Atrial EC25 that meets 9 µM or exceeds it?
// result false

// query Is the recorded value of Atrial EC25 equal to or greater than 9 µM for this compound? Cc1nccc2[nH]c(=O)c(CC(=O)N[C@@H](C)c3ccc(O)nc3)c(C)c12 (single isomer, unassigned)
// result true

// query Would you say Cc1nccc2[nH]c(=O)c(CC(=O)N[C@H]3CNc4cc(F)cc(F)c43)c(C)c12 (single isomer, unassigned) shows Atrial EC25 at minimum 9 µM?
// result false

// query Given the entry Cc1ccc([C@@H](CO)NC(=O)Cc2c(C)c3c(C)nccc3[nH]c2=O)cc1 (single isomer, unassigned) , answer whether its Atrial EC25 meets or surpasses 9 µM.
// result true

// query Has Cc1cccc([C@@H](CO)NC(=O)Cc2c(C)c3c(C)nccc3[nH]c2=O)c1 (single isomer, unassigned) a recorded Atrial EC25 greater than or equal to 9 µM?
// result true

// query Could you tell me if the measured Atrial EC25 of Cc1nccc2[nH]c(=O)c(C(F)(F)C(=O)N[C@@H](C)c3ncc(C#N)cc3F)c(C)c12 (single isomer, unassigned) reaches 9 µM or more?
// result false

// query Decide: Atrial EC25 of Cc1c(CC(=O)N[C@@H](c2ccc(F)cc2F)C(C)(C)O)c(=O)[nH]c2ccnc(C#N)c12 (single isomer, unassigned) >= 9 µM?
// result true

// query Atrial EC25 >= 9 µM for Cc1c(CC(=O)N[C@@H](C)c2ccc(S(C)(=O)=O)cc2F)c(=O)[nH]c2ccnc(C#N)c12 (single isomer, unassigned) ?
// result true

// query Tell me whether Atrial EC25 is at least 9 µM here: C[C@H](NC(=O)[C@H](C)c1cc2cnccc2[nH]c1=O)c1ccc(F)cc1F (single isomer, unassigned)
// result true
